Organism: Rattus norvegicus
Experiment: Open TG-GATES - Regimen: Daily Repeat
Type: toxicity, organism-based, Sprague-Dawley
Parameters: regimen Daily Repeat, gender Male, age 6 weeks
Conditions: in vivo, po, 0 mg/kg, […], tissue Plasma, route gavage, dose level Control, time 7 day
Each entry below lists one item and its recorded K value.
The reply should contain only the number, in meq/L.

Guide cases for K, answers given:
COMPOUND | REPORTED RESULT
NC(=O)N1c2ccccc2C=Cc2ccccc21 [CARBAMAZEPINE] | 3.8
CC(=O)Oc1ccccc1C(=O)O [ASPIRIN] | 3.6
Clc1ccccc1CN1CCc2sccc2C1 [TICLOPIDINE] | 3.9
C[C@H](CS)C(=O)N1CCC[C@H]1C(=O)O [CAPTOPRIL] | 4.9
CCCC(CCC)C(=O)O [VALPROIC ACID] | 3.8
COc1ccc(Cc2nccc3cc(OC)c(OC)cc23)cc1OC [PAPAVERINE] | 4.4
O=C(O)c1cc(/N=N/c2ccc(S(=O)(=O)Nc3ccccn3)cc2)ccc1O [SULFASALAZINE] | 3.5
COc1ccc2c(c1)c(CC(=O)O)c(C)n2C(=O)c1ccc(Cl)cc1 [INDOMETHACIN] | 5

Exercise: Please give the measured K for this compound: NC(=O)N/N=C/c1ccc([N+](=O)[O-])o1 [NITROFURAZONE]
Solution: 3.6

Exercise: Requested field: K. Item: Cn1c(=O)c2[nH]cnc2n(C)c1=O.O [THEOPHYLLINE]
Solution: 4.6

Exercise: What does the data say about its K? Entry: CN(C)CCC=C1c2ccccc2CCc2ccccc21 [AMITRIPTYLINE]
Solution: 3.9

Exercise: What does the record list as K for CSc1ccc2c(c1)N(CCC1CCCCN1C)c1ccccc1S2 (stereo not given) [THIORIDAZINE] ?
Solution: 5.2
